These entries and their values trace back to patent US7713994B2.

biological target: cyclin D1/cdk 4 enzyme (Homo sapiens, UniProt P11802); construct: made in house; host or cells: Sf9 insect cells, recombinant baculovirus; experiment: CDK4 ELISA kinase assay (phospho-Rb ser 795 detection); assay type: biochemical; details: In Vitro Enzyme Assay, cyclin D1/cdk 4, read-out: CDK4 IC50
Sequence (P11802 whole entry, species assumed): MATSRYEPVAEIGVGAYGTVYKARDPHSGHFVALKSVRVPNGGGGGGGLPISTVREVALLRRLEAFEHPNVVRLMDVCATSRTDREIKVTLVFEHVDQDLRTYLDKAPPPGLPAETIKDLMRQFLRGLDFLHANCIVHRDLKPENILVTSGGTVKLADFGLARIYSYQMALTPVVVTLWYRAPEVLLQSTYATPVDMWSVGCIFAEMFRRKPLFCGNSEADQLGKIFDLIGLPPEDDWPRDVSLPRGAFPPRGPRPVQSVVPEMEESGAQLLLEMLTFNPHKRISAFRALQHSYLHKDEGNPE
Sequence (P24385 whole entry partner, species assumed): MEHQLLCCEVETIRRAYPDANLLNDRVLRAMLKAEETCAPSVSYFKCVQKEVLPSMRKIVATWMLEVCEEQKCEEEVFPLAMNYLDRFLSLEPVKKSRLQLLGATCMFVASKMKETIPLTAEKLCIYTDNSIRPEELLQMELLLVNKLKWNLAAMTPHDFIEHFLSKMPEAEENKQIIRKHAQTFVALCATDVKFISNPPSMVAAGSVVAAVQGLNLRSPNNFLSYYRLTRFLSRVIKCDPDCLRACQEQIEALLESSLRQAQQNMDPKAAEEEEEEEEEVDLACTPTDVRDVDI
measured.metric: IC50 (nM)

Examples with answers:
record.smiles | unit.text | IC50
CN1CCN(c2ccc(NC=C3C(=O)NC(=O)c4ccc(-c5ccn(CCCC#N)c5)cc43)cc2)CC1 | nM | 310
O=C1NC(=O)c2ccc(-c3cc4ccccc4s3)cc2C1=CNCc1ccc(O)c(O)c1 | nM | 2000
CCC(=O)Nc1cnc(CN/C=C2\C(=O)NC(=O)c3ccc(I)cc32)cc1O | nM | 50
CN1CCN(c2ccc(NC=C3C(=O)NC(=O)c4ccc(-c5ccc(C(=O)O)cc5)cc43)cc2)CC1 | nM | 1510
CC(=O)c1ccccc1-c1ccc2c(c1)C(=CNCc1ccc(O)c(O)c1)C(=O)NC2=O | nM | 3780

(1) COc1cccc(CC=Cc2ccc3c(c2)C(=CNCc2ccc(O)c(O)c2)C(=O)NC3=O)c1O
(2) Cc1cccc(-c2ccc3c(c2)C(=CNCc2ccc(S(N)(=O)=O)cc2)C(=O)NC3=O)c1
(3) O=C(O)C(=O)Nc1ccc(NC=C2C(=O)NC(=O)c3ccccc32)cc1
q: Could you please sort these 3 entries by IC50 from high to low? # output: labels, in the requested order
a: 3, 2, 1

(a) O=C1NC(=O)c2ccc(N(CCC(F)(F)F)CCC(F)(F)F)cc2C1=CNCc1ccc(O)c(O)c1
(b) CSc1ccccc1-c1ccc2c(c1)C(=CNCc1ccc(O)c(O)c1)C(=O)NC2=O
q: Between a and b , which one shows the larger IC50 value? Return value: the label identifying the chosen record.
a: a

(P) COC[C@@H]1CCCN1c1ccc(CN/C=C2\C(=O)NC(=O)c3ccc(I)cc32)cc1O
(Q) N#CCc1ccc(NC=C2C(=O)NC(=O)c3ccc(-c4cccc(Cl)c4)cc32)cc1
(R) O=C1NC(=O)c2ccc(C=Cn3ccnc3)cc2C1=CNCc1ccc(O)c(O)c1
(S) N#CCN1CCN(c2ccc(N/C=C3\C(=O)NC(=O)c4ccccc43)cc2)CC1
(T) O=C1NC(=O)c2ccccc2C1=CNCc1cccc(NC(=O)C2CCC2)c1
q: Hey, quick one: sort these by IC50, largest value first please. Respond with an ordered listing of the labels, as requested.
a: T, S, Q, P, R

(a) O=C1NC(=O)c2ccc(-c3ccc(C(F)(F)F)cc3)cc2C1=CNCc1ccc(O)c(O)c1
(b) CC(=O)c1ccc(-c2ccc3c(c2)C(=CNc2ccc(CC#N)cc2)C(=O)NC3=O)cc1
(c) CN1CCN(c2ccc(NC=C3C(=O)NC(=O)c4ccc(C=Cc5ccc(C(F)(F)F)cc5)cc43)cc2)CC1
(d) COc1ccc(CNC=C2C(=O)NC(=O)c3ccc(C=CCc4cccc(OC)c4O)cc32)cc1O
(e) Cc1cccc(-c2ccc3c(c2)C(=CNCc2ccc(O)c(O)c2)C(=O)NC3=O)c1
q: List the 5 entries from lowest IC50 to highest IC50 value. Write the labels out in the order the request specifies.
a: d, a, e, c, b
